system: E. coli K-12 BW25113 (ΔnadA); assay: microbe, parasite or virus in culture; type: cell-based, Escherichia coli; conditions: Escherichia coli, BW25113, read-out: MIC50 E. coli
// reported MIC50 per item
Give just the numeric value; µM need not be written.

// solved cases for MIC50 follow
Nc1c(C(=O)Nc2cccc(Cl)c2)sc2nc(-c3ccncc3)ccc12 [03_17] :: 80
Nc1c(C(=O)Nc2ccc(F)cc2Cl)sc2nc(-c3ccc(F)cc3)ccc12 [03_23] :: 40
Nc1c(C(=O)Nc2cccc(F)c2)sc2nc(-c3cccs3)ccc12 [03_02] :: 160

Entry Nc1c(C(=O)Nc2cc(Cl)ccc2Cl)sc2nc(-c3cccs3)ccc12 [03_05] ; MIC50 = 80

Entry Nc1c(C(=O)Nc2ccc(Cl)cc2F)sc2nc(-c3cccs3)ccc12 [03_15] ; MIC50 = 160
